System: HCT-116
Test: NCI-60 one-dose screen, HCT-116
Assay type: cell-based
Details: Homo sapiens; HCT-116, colon cancer; single dose 10 μM; read-out: Growth inhibition %
property: inhibition at 10 µM

O=C(Cc1ccccc1)NNC(=O)N1c2ccccc2C=Cc2ccccc21 [Compound 4g] | < 10%
O=C(NNC(=O)N1c2ccccc2C=Cc2ccccc21)c1ccc(Cl)cc1 [Compound 4c] | < 10%
Brc1ccc(-c2nnc(N3c4ccccc4C=Cc4ccccc43)o2)cc1 [Compound 5b] | 52.2%
O=C(NNC(=O)N1c2ccccc2C=Cc2ccccc21)c1ccc(Br)cc1 [Compound 4b] | < 10%
O=[N+]([O-])c1ccc(-c2nnc(N3c4ccccc4C=Cc4ccccc43)o2)cc1 [Compound 5e] | < 10%

====

Measured inhibition at 10 µM values are reported for all entries that follow.
Test system: NCI-H226
Experiment: NCI-60 one-dose screen, NCI-H226
Type: cell-based
Details: Homo sapiens; NCI-H226, non-small cell lung cancer; single dose 10 μM; read-out: Growth inhibition %
property: inhibition at 10 µM (%)

Clc1ccc(-c2nnc(N3c4ccccc4C=Cc4ccccc43)o2)cc1 | 27.5
Cc1ccc(-c2nnc(N3c4ccccc4C=Cc4ccccc43)o2)cc1 | 21.6
Brc1ccc(-c2nnc(N3c4ccccc4C=Cc4ccccc43)o2)cc1 | 28.3

====

Test system: SF-295
Experiment: NCI-60 one-dose screen, SF-295
Type: cell-based
Details: Homo sapiens; SF-295, CNS cancer; single dose 10 μM; read-out: Growth inhibition %
property: inhibition at 10 µM

Brc1ccc(-c2nnc(N3c4ccccc4C=Cc4ccccc43)o2)cc1 [Compound 5b] | 30.4%
O=C(NNC(=O)N1c2ccccc2C=Cc2ccccc21)c1ccccc1 [Compound 4a] | < 10%
C1=Cc2ccccc2N(c2nnc(Cc3ccccc3)o2)c2ccccc21 [Compound 5g] | < 10%
Cc1ccc(-c2nnc(N3c4ccccc4C=Cc4ccccc43)o2)cc1 [Compound 5d] | 22%
Clc1ccc(-c2nnc(N3c4ccccc4C=Cc4ccccc43)o2)cc1 [Compound 5c] | 29.6%
C1=Cc2ccccc2N(c2nnc(-c3ccccc3)o2)c2ccccc21 [Compound 5a] | < 10%
C1=Cc2ccccc2N(c2nnc(-c3ccc4ccccc4c3)o2)c2ccccc21 [Compound 5f] | 19.9%
O=C(NNC(=O)N1c2ccccc2C=Cc2ccccc21)c1ccc2ccccc2c1 [Compound 4f] | < 10%
O=[N+]([O-])c1ccc(-c2nnc(N3c4ccccc4C=Cc4ccccc43)o2)cc1 [Compound 5e] | < 10%
O=C(NNC(=O)N1c2ccccc2C=Cc2ccccc21)c1ccc(Br)cc1 [Compound 4b] | < 10%
O=C(NNC(=O)N1c2ccccc2C=Cc2ccccc21)c1ccc(Cl)cc1 [Compound 4c] | < 10%
O=C(Cc1ccccc1)NNC(=O)N1c2ccccc2C=Cc2ccccc21 [Compound 4g] | < 10%
O=C(NNC(=O)N1c2ccccc2C=Cc2ccccc21)c1ccc([N+](=O)[O-])cc1 [Compound 4e] | < 10%
Cc1ccc(C(=O)NNC(=O)N2c3ccccc3C=Cc3ccccc32)cc1 [Compound 4d] | < 10%

====

System: HCT-116
Assay: NCI-60 one-dose screen, HCT-116
Format: cell-based
Conditions: Homo sapiens; HCT-116, colon cancer; single dose 10 μM; read-out: Growth inhibition %
Experimental: Anti-proliferative effects of the counterparts 4a–g and 5a–g were screened against 60 human cancer cell lines, following the Developmental Therapeutics Program protocol, National Cancer Institute[35]. The anti-tumour activity of the fourteen synthesised congeners was investigated at the NCI against a panel of 60 cancer cell lines (NCI-60 Cell One-Dose Screen). The tested dibenzo[b,f]azepine derivatives were screened at a single dose level (10 μM), Table 1.
property: inhibition at 10 µM (%)

C1=Cc2ccccc2N(c2nnc(-c3ccc4ccccc4c3)o2)c2ccccc21 | 27.3
Cc1ccc(-c2nnc(N3c4ccccc4C=Cc4ccccc43)o2)cc1 | 45.8
C1=Cc2ccccc2N(c2nnc(-c3ccccc3)o2)c2ccccc21 | 54.2
C1=Cc2ccccc2N(c2nnc(Cc3ccccc3)o2)c2ccccc21 | 31.4
Clc1ccc(-c2nnc(N3c4ccccc4C=Cc4ccccc43)o2)cc1 | 47.7
